These measurements were taken from the RNAGym collection of RNA variant scans (doi:10.1093/molbev/msab373).

B1: Azoarcus group I ribozyme (parent)
chain: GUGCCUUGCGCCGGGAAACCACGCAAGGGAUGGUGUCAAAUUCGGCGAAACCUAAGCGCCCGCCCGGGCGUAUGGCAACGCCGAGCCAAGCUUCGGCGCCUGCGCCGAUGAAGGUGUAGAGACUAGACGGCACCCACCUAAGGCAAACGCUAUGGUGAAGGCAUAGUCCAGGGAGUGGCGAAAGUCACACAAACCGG

- Variants of: B1
- procedure-summary: reverse-splicing fitness (ratio to wild type); higher = more active; in vitro selection; Mg2+ level not given
measured-attribute: reverse-splicing fitness
API doc: respond with a numeric literal and nothing else, no unit.

QUERY: // Input: C82U A120C C150G U176G . Output its reverse-splicing fitness only.
RESULT: 0.00299

QUERY: Supply reverse-splicing fitness value. Item: C82G A120G A145G C150U C169U
RESULT: 0.0236

QUERY: Answer with reported reverse-splicing fitness of C82A A111G A120G A145C C150A U176A
RESULT: 0.0107

QUERY: Determine from records and report reverse-splicing fitness for A111G A120U A145C C150U C169G
RESULT: 0.0196

QUERY: Please report the measured reverse-splicing fitness for C82U A111C A120C A145G C150A C169G
RESULT: 0.00891

QUERY: Tell me measured reverse-splicing fitness for C82A A111U A120U A145G C150A C169U U176A please.
RESULT: 0.00626
